- Assay Remarks: Inhibition of Alpha-galactosidase of green coffee beans
Each entry below lists one item and its recorded pIC50 value.
Reminder that pIC50 means the negative base-10 logarithm of the concentration expressed in mol/L.

[[record]]
compound = "N[C@H]1C[C@H](CO)[C@@H](O)[C@H](O)[C@H]1O"
numeric_value = 5.55


Kindly consider the entry below.
Noted for CO[C@@H]1CC2COC(C1O)[C@H]2NC1CC(CO)C(O)C(O)C1O (some centres not stated) : its pIC50 reads 5.92

* * *

- Tested System: Tissue alpha-L-fucosidase (Bos taurus, UniProt Q2KIM0)
- Sequence (Q2KIM0 whole entry): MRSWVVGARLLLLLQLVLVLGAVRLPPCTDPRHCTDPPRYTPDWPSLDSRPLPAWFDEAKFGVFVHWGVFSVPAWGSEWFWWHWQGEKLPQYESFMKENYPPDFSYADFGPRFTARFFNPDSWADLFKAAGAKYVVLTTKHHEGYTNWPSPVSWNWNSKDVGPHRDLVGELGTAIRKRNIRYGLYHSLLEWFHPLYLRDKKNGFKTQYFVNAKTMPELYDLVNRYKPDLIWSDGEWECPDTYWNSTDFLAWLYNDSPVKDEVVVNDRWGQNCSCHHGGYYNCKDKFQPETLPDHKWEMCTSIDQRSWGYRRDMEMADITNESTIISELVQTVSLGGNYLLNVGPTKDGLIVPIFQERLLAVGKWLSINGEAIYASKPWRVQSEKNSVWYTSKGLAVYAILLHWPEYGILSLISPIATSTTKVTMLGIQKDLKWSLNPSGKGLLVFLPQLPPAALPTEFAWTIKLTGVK
- Assay Remarks: Inhibition of Alpha-fucosidase of bovine kidney; NI=no inhibition
Reported Endpoint: IC50

[[record]]
compound = "CCCCCCCCCCN[C@@H]1C[C@@H]2CO[C@H](C2O)[C@H]1O (single isomer, unassigned)"
result = "Not Active"

[[record]]
compound = "CCCCCCCCN[C@@H]1C[C@@H]2CO[C@H](C2O)[C@H]1O (single isomer, unassigned)"
result = "Not Active"

[[record]]
compound = "CCCCN[C@@H]1C[C@@H]2CO[C@H](C2O)[C@H]1O (single isomer, unassigned)"
result = "Not Active"


* * *

- Tested System: UniProt:Q2KIM0
- Assay Remarks: Inhibition of Alpha-fucosidase of bovine kidney; NI=no inhibition
Reported Endpoint: IC50

[[record]]
compound = "CCCCCCCCCCCCN[C@@H]1C[C@@H]2CO[C@H](C2O)[C@H]1O (single isomer, unassigned)"
tested_system = "UniProt:Q2KIM0"
reported_endpoint = "IC50"
result = "Not Active"

[[record]]
compound = "CCCCCCN[C@@H]1C[C@@H]2CO[C@H](C2O)[C@H]1O (single isomer, unassigned)"
tested_system = "UniProt:Q2KIM0"
reported_endpoint = "IC50"
result = "Not Active"

[[record]]
compound = "OC1[C@H]2CO[C@H]1[C@@H](O)[C@H](NCc1ccccc1)C2 (single isomer, unassigned)"
tested_system = "UniProt:Q2KIM0"
reported_endpoint = "IC50"
result = "Not Active"

[[record]]
compound = "OC1[C@H]2CO[C@H]1[C@@H](O)[C@H](NCCc1ccccc1)C2 (single isomer, unassigned)"
tested_system = "UniProt:Q2KIM0"
reported_endpoint = "IC50"
result = "Not Active"

